# testedOn: Dopamine D2 receptor (Homo sapiens, UniProt P14416)
# Sequence (P14416 1-414 isoform P14416-2): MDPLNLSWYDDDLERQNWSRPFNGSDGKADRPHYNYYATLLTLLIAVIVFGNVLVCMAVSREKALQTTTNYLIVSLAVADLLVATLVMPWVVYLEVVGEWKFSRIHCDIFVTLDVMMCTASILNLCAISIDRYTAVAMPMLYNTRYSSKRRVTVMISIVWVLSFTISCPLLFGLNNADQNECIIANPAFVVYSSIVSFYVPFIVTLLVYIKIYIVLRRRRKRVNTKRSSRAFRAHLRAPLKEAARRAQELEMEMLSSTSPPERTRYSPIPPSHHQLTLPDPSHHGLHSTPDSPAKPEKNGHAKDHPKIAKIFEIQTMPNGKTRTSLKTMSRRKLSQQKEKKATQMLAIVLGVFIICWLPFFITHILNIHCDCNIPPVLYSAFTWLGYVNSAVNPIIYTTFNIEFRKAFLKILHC
# assayProcedure: Dopamine D2 receptor binding assay ([125I]iodospiperone)
# conditions: [125I]iodospiperone 0.1 nM, D2 receptor membranes, 2 hours at room temperature; read-out: Relative D2 Receptor Binding Affinity Ki
Structures can show the parent of a compound that is named as a salt.
Recorded Ki values for a group of compounds are listed next.
readoutLabel: Ki

[[record]]
compound = "Cc1cc2c(s1)Nc1ccccc1N=C2N1CCN[C@@H](Cc2cc(F)cc(F)c2)C1"
testedon = "Dopamine D2 receptor (Homo sapiens, UniProt P14416)"
endpointvalue = "< 10 nM"

[[record]]
compound = "Cc1nc2c(s1)Nc1ccccc1N=C2N1CCN(C)[C@@H](CCc2ccccc2)C1 [Example 461, dihydrochloride hemihydrate]"
testedon = "Dopamine D2 receptor (Homo sapiens, UniProt P14416)"
endpointvalue = "10 to 100 nM"

[[record]]
compound = "COc1cccc(CC[C@H]2CN(C3=Nc4ccccc4Nc4sc(C)cc43)CCN2)c1 [Example 180, dihydrochloride]"
testedon = "Dopamine D2 receptor (Homo sapiens, UniProt P14416)"
endpointvalue = "< 10 nM"

[[record]]
compound = "Cc1cc2c(s1)Nc1ccccc1N=C2N1CCN[C@@H](CCCCc2ccccc2)C1"
testedon = "Dopamine D2 receptor (Homo sapiens, UniProt P14416)"
endpointvalue = "< 10 nM"

[[record]]
compound = "COc1cccc(C[C@H]2CN(C3=Nc4ccccc4Nc4sc(C)cc43)CCN2)c1"
testedon = "Dopamine D2 receptor (Homo sapiens, UniProt P14416)"
endpointvalue = "< 10 nM"

[[record]]
compound = "Cc1cc2c(s1)Nc1ccccc1N=C2N1CCN(C)[C@@H](CCCCc2ccccc2)C1"
testedon = "Dopamine D2 receptor (Homo sapiens, UniProt P14416)"
endpointvalue = "10 to 100 nM"

[[record]]
compound = "Cc1nc2c(s1)Nc1ccccc1N=C2N1CCN[C@@H](CCc2ccccc2)C1 [Example 460, dihydrochloride hemihydrate]"
testedon = "Dopamine D2 receptor (Homo sapiens, UniProt P14416)"
endpointvalue = "< 10 nM"

[[record]]
compound = "Cc1cc2c(s1)Nc1ccccc1N=C2N1CCN[C@@H](Cc2ccsc2)C1"
testedon = "Dopamine D2 receptor (Homo sapiens, UniProt P14416)"
endpointvalue = "< 10 nM"


###

Overview of reported melting point across a group of compounds:
Structures can show the parent of a compound that is named as a salt.
readoutLabel: melting point

[[record]]
compound = "Cc1nc2c(s1)Nc1ccccc1N=C2N1CCN(C)[C@@H](Cc2ccccc2)C1 (as salt: hydrochloride)"
endpointvalue = "240 °C"

[[record]]
compound = "COc1cccc(CC[C@H]2CN(C3=Nc4ccccc4Nc4sc(C)cc43)CCN2C)c1 (as salt: hydrochloride) [Example 186, dihydrochloride]"
endpointvalue = "200 °C (dec.)"

[[record]]
compound = "Cc1nc2c(s1)Nc1ccccc1N=C2N1CCN(C)[C@@H](CCc2cccc(F)c2)C1 (as salt: hydrochloride) [Example 479, dihydrochloride]"
endpointvalue = "230 °C"

[[record]]
compound = "Cc1cc2c(s1)Nc1ccccc1N=C2N1CCN[C@@H](Cc2ccsc2)C1"
endpointvalue = "82 to 94 °C"

[[record]]
compound = "Cc1cccc(C[C@H]2CN(C3=Nc4ccccc4Nc4sc(C)cc43)CCN2C)c1"
endpointvalue = "67 to 83 °C"

[[record]]
compound = "Cc1cc2c(s1)Nc1ccccc1N=C2N1CCN(C)[C@@H](CCc2ccc(Cl)cc2)C1"
endpointvalue = "79 °C (dec.)"

[[record]]
compound = "Cc1cc2c(s1)Nc1ccccc1N=C2N1CCN[C@@H](Cc2ccc(Cl)cc2)C1"
endpointvalue = "91 to 108 °C"


###

Structures can show the parent of a compound that is named as a salt.
The compounds listed here are annotated with their melting point.
readoutLabel: melting point

[[record]]
compound = "CC(C)(C)c1cc2c(s1)Nc1ccccc1N=C2N1CCN[C@@H](CCc2ccccc2)C1"
readoutlabel = "melting point"
endpointvalue = "93 to 96 °C"

[[record]]
compound = "Cc1ccc2c(c1)C(N1CCN[C@@H](CCc3ccccc3)C1)=Nc1ccccc1N2"
readoutlabel = "melting point"
endpointvalue = "67 °C (dec.)"

[[record]]
compound = "Cc1ccc2c(c1)Nc1ccccc1N=C2N1CCN[C@@H](CCc2ccccc2)C1"
readoutlabel = "melting point"
endpointvalue = "64 to 80 °C"

[[record]]
compound = "Cc1cc2c(s1)Nc1ccccc1N=C2N1CCN[C@@H](CCc2ccc(C(F)(F)F)cc2)C1"
readoutlabel = "melting point"
endpointvalue = "78 °C (dec.)"

[[record]]
compound = "CC(C)c1nc2c(s1)Nc1ccccc1N=C2N1CCN(C)[C@@H](CCc2ccc(F)cc2)C1 (as salt: hydrochloride) [Example 481, dihydrochloride]"
readoutlabel = "melting point"
endpointvalue = "228 °C"

[[record]]
compound = "Cc1cc2c(s1)Nc1ccccc1N=C2N1CCN[C@@H](CCc2ccccc2Cl)C1"
readoutlabel = "melting point"
endpointvalue = "72 °C (dec.)"

[[record]]
compound = "COc1ccccc1CC[C@H]1CN(C2=Nc3ccccc3Nc3sc(C)cc32)CCN1C (as salt: hydrochloride) [Example 187, dihydrochloride]"
readoutlabel = "melting point"
endpointvalue = "213 °C (dec.)"


###

Examples of molecules with documented melting point follow.
Structures can show the parent of a compound that is named as a salt.
readoutLabel: melting point

[[record]]
molecule = "Cc1cc2c(s1)Nc1ccccc1N=C2N1CCN(C)[C@@H](CCc2ccccc2F)C1 (as salt: hydrochloride) [Example 184, dihydrochloride]"
endpointvalue = "203 °C (dec.)"

[[record]]
molecule = "Cc1cc2c(s1)Nc1ccccc1N=C2N1CCN(C)[C@@H](CCc2ccoc2)C1.Cl.Cl"
endpointvalue = "198 °C (dec.)"

[[record]]
molecule = "CN1CCN(C2=Nc3ccccc3Nc3sc(C(C)(C)C)cc32)C[C@@H]1CCc1ccccc1 (as salt: hydrochloride)"
endpointvalue = "230 °C"

[[record]]
molecule = "Cc1ccc2c(c1)C(N1CCN(C)[C@@H](CCc3ccccc3)C1)=Nc1ccccc1N2"
endpointvalue = "65 °C (dec.)"

[[record]]
molecule = "Cc1ccc2c(c1)Nc1ccccc1N=C2N1CCN[C@@H](CCc2cccc(F)c2)C1"
endpointvalue = "81 °C (dec.)"

[[record]]
molecule = "COc1ccccc1C[C@H]1CN(C2=Nc3ccccc3Nc3sc(C)cc32)CCN1"
endpointvalue = "95 to 109 °C"

[[record]]
molecule = "Cc1nc2c(s1)Nc1ccccc1N=C2N1CCN(C)[C@@H](CCc2ccc(F)cc2)C1 (as salt: hydrochloride)"
endpointvalue = "230 °C"

[[record]]
molecule = "Cc1cc2c(s1)Nc1ccccc1N=C2N1CCN[C@@H](CCc2ccccc2C(F)(F)F)C1"
endpointvalue = "73 °C (dec.)"


###

# testedOn: Dopamine D2 receptor (Homo sapiens, UniProt P14416)
# assayProcedure: Dopamine D2 receptor binding assay ([125I]iodospiperone)
# conditions: [125I]iodospiperone 0.1 nM, D2 receptor membranes, 2 hours at room temperature; read-out: Relative D2 Receptor Binding Affinity Ki
# Method: Serotonin 5-HT6 and Dopamine D2 Binding Assay Protocol The assay buffers used are 50 mM Tris-HCl pH 7.4, 120 mM NaCl, 5 mM KCl, 5 mM MgCl2, 1 mM EDTA for the Dopamine D2s receptor binding assay. […] The membranes used are from Receptor Biology (now owned by NEN), Cat #RBHD2CM for the D2 receptor. […] The radioligand is diluted in assay buffer to provide 0.1 nM for the D2 assay. […] Non-specific binding is determined in wells containing a final concentration of 5 μM haloperidol. […]
Where a name gives a salt, the structure may show the parent alone.
# Ki listing for each entry below
readoutLabel: Ki

[[record]]
molecule = "CC(C)n1nc2c(n1)C(N1CCN[C@@H](CCc3ccccc3)C1)=Nc1ccccc1N2 [Example 594, dihydrochloride hemihydrate]"
testedon = "Dopamine D2 receptor (Homo sapiens, UniProt P14416)"
endpointvalue = "< 10 nM"

[[record]]
molecule = "COc1ccc(CC[C@H]2CN(C3=Nc4ccccc4Nc4sc(C)cc43)CCN2)cc1 [Example 179, dihydrochloride]"
testedon = "Dopamine D2 receptor (Homo sapiens, UniProt P14416)"
endpointvalue = "< 10 nM"

[[record]]
molecule = "Cc1cc2c(s1)Nc1ccccc1N=C2N1CCN[C@@H](Cc2cccs2)C1"
testedon = "Dopamine D2 receptor (Homo sapiens, UniProt P14416)"
endpointvalue = "< 10 nM"

[[record]]
molecule = "Cc1ccc(C[C@H]2CN(C3=Nc4ccccc4Nc4sc(C)cc43)CCN2)cc1"
testedon = "Dopamine D2 receptor (Homo sapiens, UniProt P14416)"
endpointvalue = "10 to 100 nM"

[[record]]
molecule = "Cc1cccc(C[C@H]2CN(C3=Nc4ccccc4Nc4sc(C)cc43)CCN2)c1"
testedon = "Dopamine D2 receptor (Homo sapiens, UniProt P14416)"
endpointvalue = "< 10 nM"

[[record]]
molecule = "Cc1cc2c(s1)Nc1ccccc1N=C2N1CCN[C@@H](Cc2ccc(Cl)cc2)C1"
testedon = "Dopamine D2 receptor (Homo sapiens, UniProt P14416)"
endpointvalue = "< 10 nM"

[[record]]
molecule = "Cc1cc2c(s1)Nc1ccccc1N=C2N1CCN[C@@H](Cc2ccccc2F)C1"
testedon = "Dopamine D2 receptor (Homo sapiens, UniProt P14416)"
endpointvalue = "< 10 nM"

[[record]]
molecule = "Cc1cccc(C[C@H]2CN(C3=Nc4ccccc4Nc4sc(C)cc43)CCN2C)c1"
testedon = "Dopamine D2 receptor (Homo sapiens, UniProt P14416)"
endpointvalue = "10 to 100 nM"

[[record]]
molecule = "CC(C)n1nc2c(n1)C(N1CCN(C)[C@@H](CCc3ccccc3)C1)=Nc1ccccc1N2 [Example 595, dihydrochloride hemihydrate]"
testedon = "Dopamine D2 receptor (Homo sapiens, UniProt P14416)"
endpointvalue = "10 to 100 nM"

[[record]]
molecule = "Cc1cc2c(s1)Nc1ccccc1N=C2N1CCN(C)[C@@H](CCc2ccccc2F)C1 [Example 184, dihydrochloride]"
testedon = "Dopamine D2 receptor (Homo sapiens, UniProt P14416)"
endpointvalue = "10 to 100 nM"

[[record]]
molecule = "Cc1cc2c(s1)Nc1ccccc1N=C2N1CCN(C)[C@@H](Cc2ccccc2)C1"
testedon = "Dopamine D2 receptor (Homo sapiens, UniProt P14416)"
endpointvalue = "10 to 100 nM"

[[record]]
molecule = "Cc1cc2c(s1)Nc1ccccc1N=C2N1CCN[C@@H](Cc2cccc(Cl)c2)C1"
testedon = "Dopamine D2 receptor (Homo sapiens, UniProt P14416)"
endpointvalue = "10 to 100 nM"

[[record]]
molecule = "Cc1cc2c(s1)Nc1ccccc1N=C2N1CCN(C)[C@@H](CCc2cccc(F)c2)C1 [Example 183, dihydrochloride]"
testedon = "Dopamine D2 receptor (Homo sapiens, UniProt P14416)"
endpointvalue = "10 to 100 nM"

[[record]]
molecule = "Cc1cc2c(s1)Nc1ccccc1N=C2N1CCN(C)[C@@H](Cc2cccc(Cl)c2)C1"
testedon = "Dopamine D2 receptor (Homo sapiens, UniProt P14416)"
endpointvalue = "10 to 100 nM"

[[record]]
molecule = "COc1ccc(C[C@H]2CN(C3=Nc4ccccc4Nc4sc(C)cc43)CCN2)cc1"
testedon = "Dopamine D2 receptor (Homo sapiens, UniProt P14416)"
endpointvalue = "10 to 100 nM"

[[record]]
molecule = "Cc1cc2c(s1)Nc1ccccc1N=C2N1CCN[C@@H](CCc2ccccc2)C1"
testedon = "Dopamine D2 receptor (Homo sapiens, UniProt P14416)"
endpointvalue = "10 to 100 nM"

[[record]]
molecule = "Cc1cc2c(s1)Nc1ccccc1N=C2N1CCN(C)[C@@H](Cc2ccsc2)C1"
testedon = "Dopamine D2 receptor (Homo sapiens, UniProt P14416)"
endpointvalue = "10 to 100 nM"

[[record]]
molecule = "Cc1cc2c(s1)Nc1ccccc1N=C2N1CCN[C@@H](Cc2ccccc2)C1"
testedon = "Dopamine D2 receptor (Homo sapiens, UniProt P14416)"
endpointvalue = "< 10 nM"

[[record]]
molecule = "COc1ccccc1CC[C@H]1CN(C2=Nc3ccccc3Nc3sc(C)cc32)CCN1C [Example 187, dihydrochloride]"
testedon = "Dopamine D2 receptor (Homo sapiens, UniProt P14416)"
endpointvalue = "10 to 100 nM"

[[record]]
molecule = "Cc1cc2c(s1)Nc1ccccc1N=C2N1CCN[C@@H](Cc2cccc(F)c2)C1"
testedon = "Dopamine D2 receptor (Homo sapiens, UniProt P14416)"
endpointvalue = "10 to 100 nM"

[[record]]
molecule = "COc1ccccc1C[C@H]1CN(C2=Nc3ccccc3Nc3sc(C)cc32)CCN1C"
testedon = "Dopamine D2 receptor (Homo sapiens, UniProt P14416)"
endpointvalue = "< 10 nM"

[[record]]
molecule = "COc1ccccc1C[C@H]1CN(C2=Nc3ccccc3Nc3sc(C)cc32)CCN1"
testedon = "Dopamine D2 receptor (Homo sapiens, UniProt P14416)"
endpointvalue = "< 10 nM"

[[record]]
molecule = "Cc1cc2c(s1)Nc1ccccc1N=C2N1CCN[C@@H](CCc2cccc(F)c2)C1 [Example 177, dihydrochloride]"
testedon = "Dopamine D2 receptor (Homo sapiens, UniProt P14416)"
endpointvalue = "10 to 100 nM"

[[record]]
molecule = "Cc1cc2c(s1)Nc1ccccc1N=C2N1CCN[C@@H](CCc2ccccc2F)C1 [Example 178, dihydrochloride]"
testedon = "Dopamine D2 receptor (Homo sapiens, UniProt P14416)"
endpointvalue = "10 to 100 nM"

[[record]]
molecule = "Cc1cc2c(s1)Nc1ccccc1N=C2N1CCN[C@@H](CCc2ccc(F)cc2)C1 [Example 176, dihydrochloride]"
testedon = "Dopamine D2 receptor (Homo sapiens, UniProt P14416)"
endpointvalue = "10 to 100 nM"

[[record]]
molecule = "Cc1cc2c(s1)Nc1ccccc1N=C2N1CCN(C)[C@@H](CCc2ccccc2)C1"
testedon = "Dopamine D2 receptor (Homo sapiens, UniProt P14416)"
endpointvalue = "10 to 100 nM"

[[record]]
molecule = "COc1ccc(CC[C@H]2CN(C3=Nc4ccccc4Nc4sc(C)cc43)CCN2C)cc1 [Example 185, dihydrochloride]"
testedon = "Dopamine D2 receptor (Homo sapiens, UniProt P14416)"
endpointvalue = "10 to 100 nM"

[[record]]
molecule = "COc1ccccc1CC[C@H]1CN(C2=Nc3ccccc3Nc3sc(C)cc32)CCN1 [Example 181, dihydrochloride]"
testedon = "Dopamine D2 receptor (Homo sapiens, UniProt P14416)"
endpointvalue = "10 to 100 nM"

[[record]]
molecule = "COc1cccc(CC[C@H]2CN(C3=Nc4ccccc4Nc4sc(C)cc43)CCN2C)c1 [Example 186, dihydrochloride]"
testedon = "Dopamine D2 receptor (Homo sapiens, UniProt P14416)"
endpointvalue = "< 10 nM"

[[record]]
molecule = "Cc1cc2c(s1)Nc1ccccc1N=C2N1CCN(C)[C@@H](CCc2ccc(F)cc2)C1 [Example 182, dihydrochloride]"
testedon = "Dopamine D2 receptor (Homo sapiens, UniProt P14416)"
endpointvalue = "10 to 100 nM"


FYI, the data here is from patent US7214673B2.
